Would you kindly list activity, negative = inhibition for each of these molecules?
Molecular target: Cytochrome P450 2C9 (Homo sapiens)
Experiment: Cytochrome panel assay with activity outcomes; note: % is set by controls: 0 for no effect and ±100 for the full control effect
Details: recombinant CYP, pro-luciferin dealkylation, luminescence, p450-cyp2c9; series mostly up to 57.1 µM
In all, about 16,000 compounds went through this assay and about 4,000 (25%) were called active. Inconclusive results (about 26%) are left out. The list is a sample of the results.

Q: GET /values?readout=activity, negative = inhibition&item= "COc1ccccc1CNc1ncncc1-c1cccc(NS(C)(=O)=O)c1"
Ans: -27.7% [at 2.29 µM] (inactive)

Q: Now consider "c1cncc(-c2cncnc2NCc2cccs2)c1" and answer again.
Ans: -1.39% [at 2.29 µM] (inactive)

Q: Subsequent entry: "CSc1nnnc2ccccc12"
Ans: 14.9% [at 11.4 µM] (inactive)

Q: Field entry: "CC(=O)OC[C@H]1O[C@@H](O/N=C(\C)CCN2CCCc3nc(C)c(C)cc32)[C@H](OC(C)=O)[C@@H](OC(C)=O)[C@H]1OC(C)=O"
Ans: 18.1% [at 11.4 µM] (inactive)

Q: Param item: "O=C(O)c1cc2ccccc2c(S(=O)(=O)O)c1O"
Ans: 10.7% [at 11.4 µM] (inactive)

----------
Biological target: Cytochrome P450 2C9 (Homo sapiens) (UniProt P11712)
Sequence (P11712 whole entry, looked up): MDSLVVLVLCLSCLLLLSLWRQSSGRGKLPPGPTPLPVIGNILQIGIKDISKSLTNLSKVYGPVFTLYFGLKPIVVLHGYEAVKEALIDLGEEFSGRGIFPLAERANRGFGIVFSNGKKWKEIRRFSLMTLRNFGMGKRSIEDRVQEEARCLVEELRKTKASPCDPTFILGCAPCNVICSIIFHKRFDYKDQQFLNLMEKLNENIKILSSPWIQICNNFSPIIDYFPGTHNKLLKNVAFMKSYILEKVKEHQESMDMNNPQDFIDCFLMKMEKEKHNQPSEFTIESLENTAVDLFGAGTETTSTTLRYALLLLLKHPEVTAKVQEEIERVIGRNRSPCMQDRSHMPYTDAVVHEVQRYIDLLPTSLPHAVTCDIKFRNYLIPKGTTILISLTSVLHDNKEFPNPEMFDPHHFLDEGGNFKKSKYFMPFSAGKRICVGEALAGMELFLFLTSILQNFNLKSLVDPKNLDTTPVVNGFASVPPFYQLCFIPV
Experiment: Cytochrome panel assay with activity outcomes; note: % is set by controls: 0 for no effect and ±100 for the full control effect
Settings: recombinant CYP, pro-luciferin dealkylation, luminescence, p450-cyp2c9; series mostly up to 57.1 µM
Description: The P450 gene superfamily is involved in the metabolism and clearance of xenobiotics. This assay used various human CYP P450 isozymes to measure the dealkylation of various pro-luciferin substrates to luciferin. The luciferin is then measured by luminescence after the addition of a luciferase detection reagent. […] Inhibitors and some substrates limit the production of luciferin, and decrease measured luminescence. […] 8, Detection, 1 sec, ViewLux luminescent read […]
Screen size: about 16,000 compounds; about 4,000 (25%) were called active. Another 26% or so got no clear call; they are omitted. Only a sample is shown.
REPORTED_PROPERTY: activity, negative = inhibition

Q: Requested read-out: activity, negative = inhibition. Entry: "Cc1ccc(C(C)C)n1C(=O)OC(C)(C)C"
Ans: 0.745% [at 11.4 µM] (inactive)

Q: Same question for "O=[N+]([O-])c1nccn1C[C@H](O)CN1CCCCC1" please.
Ans: 0.319% [at 11.4 µM] (inactive)

Q: What about this compound? "C[C@H]1CC(C)(C)C[C@@](OCCN2CCCCC2)(c2ccccc2)C1"
Ans: 5.46% [at 11.4 µM] (inactive)

Q: What do you get for "C[C@H]1COC(=O)[C@H](Cc2ccccc2)NC(=O)[C@@H](C)COC(=O)[C@H](Cc2ccccc2)NC1=O" ?
Ans: -8.11% [at 11.4 µM] (inactive)

Q: Please answer likewise for "Cc1noc(NC(=O)Nc2ccccc2F)c1C#N"
Ans: -5.47% [at 11.4 µM] (inactive)

Q: Also check "CC(C)CNC(=O)O"
Ans: -4.26% [at 11.4 µM] (inactive)

Q: Another compound: "O=C(O)CCC(O)=C1S(=O)(=O)OCCOS1(=O)=O"
Ans: 8.09% [at 11.4 µM] (inactive)

Q: Please give the result for "O=C1c2ccccc2-c2ccc(N(Cc3ccc(Br)cc3)Cc3ccc(Br)cc3)cc21" too.
Ans: -1.26% [at 11.4 µM] (inactive)

Q: Also check "CC(C)=CCC/C(C)=C/CO/N=C1/C[C@@H](O)[C@@H](O)[C@@H]2[C@@H]3C(=O)N(Cc4ccc5c(c4)OCO5)C(=O)[C@H]3CC[C@@H]12"
Ans: -23.6% [at 11.4 µM] (inactive)

Q: Input "Cc1noc(C)c1-c1cncnc1NCc1ccccc1"
Ans: 18.5% [at 2.29 µM] (inactive)

Q: Queued: "Cc1ccc(N2CCN(CCC(=O)O)CC2)cc1"
Ans: 10.3% [at 11.4 µM] (inactive)

Q: Do the same for "CNc1nc(-c2ccccc2C)nc2ccccc12" please
Ans: 24.9% [at 2.29 µM] (inactive)

Q: Same for "Cn1ccnc1C[C@@](C)(O)c1ccccc1"
Ans: 4.93% [at 11.4 µM] (inactive)

Q: Also "ClC(Cl)(Cl)C(N1CCN(c2ccccc2)CC1)N1CCN(c2ccccc2)CC1" , if possible.
Ans: 18.4% [at 11.4 µM] (inactive)

Q: Same again, this time with "COc1ccccc1CNc1ncncc1-c1ccccc1C"
Ans: 11.7% [at 2.29 µM] (inactive)

Q: And "Clc1ccc(-c2nnc(-c3cccc4ccccc34)o2)cc1Cl" ?
Ans: 24% [at 11.4 µM] (inactive)

Q: Now the compound "N#Cc1cccc(-c2nc(NCc3ccccc3)c3ccccc3n2)c1"
Ans: -29.7% [at 2.29 µM] (inactive)

Q: Now consider "CC(C)=CCC/C(C)=C/CO/N=C1/C[C@@H](O)[C@@H](O)[C@@H]2[C@@H]3C(=O)N(C(C)(C)C)C(=O)[C@H]3CC[C@H]12" and answer again.
Ans: 23% [at 11.4 µM] (inactive)

Q: Moving on to "CO[C@H]1COC(=O)CCC[C@@H](C)[C@H](OC)COC(=O)[C@H]2CCCN2C(=O)C/C=C\[C@@H]1C"
Ans: 5.44% [at 11.4 µM] (inactive)

Q: Input "Cc1ccccc1-c1cc(NCc2ccccc2)ncn1"
Ans: -15.2% [at 2.29 µM] (inactive)

Q: Then this compound: "Cc1ccccc1-c1ccc2ncnc(N3CCNCC3)c2c1"
Ans: 4.82% [at 2.29 µM] (inactive)

Q: Another compound: "COc1ccc(CNc2ncncc2-c2ccccc2C(F)(F)F)c(OC)c1"
Ans: -25.4% [at 2.29 µM] (inactive)

Q: Now the compound "Cc1noc(C)c1-c1nc(NC2CCNCC2)c2ccccc2n1"
Ans: 13% [at 2.29 µM] (inactive)

Q: Next entry: "O=c1[nH]cc(CS(=O)(=O)Cc2c[nH]c(=O)[nH]c2=O)c(=O)[nH]1"
Ans: -2.59% [at 11.4 µM] (inactive)

Q: Could you do the same for "O=C1[C@@H]2[C@@H](C(=O)N1c1ccc(OCc3ccccc3)cc1)[C@@H]1c3ccccc3[C@@H]2[n+]2ccccc21" , please?
Ans: 0.978% [at 11.4 µM] (inactive)

Q: Continue with "CC[C@@H](c1ccccc1)n1c(=O)n2n(c1=O)[C@H]1[C@H](O)[C@H]3O[C@@H]3/C(=N/OCc3ccccc3)[C@@H]1CC2"
Ans: -21.9% [at 11.4 µM] (inactive)

Q: # iterate: "c1ccc(CNc2cc(-c3ccoc3)ncn2)cc1"
Ans: -12.4% [at 2.29 µM] (inactive)

Q: Also "CN(C)C(=O)c1ccc(-c2cc(NCc3cccnc3)ncn2)cc1" , if possible.
Ans: 17.1% [at 2.29 µM] (inactive)

Q: Same question, "COc1cc(Cl)c(CC(=O)c2c[nH]c3ccccc23)cc1OC" this time
Ans: -14.5% [at 11.4 µM] (inactive)

Q: Subsequent entry: "N#Cc1cccc(-c2nccc(-n3ccnc3)n2)c1"
Ans: 5.77% [at 2.29 µM] (inactive)

Q: Check "CN1CCN(CC(=O)N2c3ccccc3Sc3cc4ccccc4cc32)CC1" too.
Ans: 5.77% [at 11.4 µM] (inactive)

Q: Also "COc1ccccc1-c1cc(NCc2cnc(C)cn2)ncn1" ?
Ans: 9.42% [at 2.29 µM] (inactive)

Q: What about this compound? "COc1ccc2[nH]cc(CCNc3ncncc3-c3ccccc3CN(C)C)c2c1"
Ans: 4.66% [at 2.29 µM] (inactive)
